Molecular target: hERG (Homo sapiens)
Sequence (Q12809 whole entry): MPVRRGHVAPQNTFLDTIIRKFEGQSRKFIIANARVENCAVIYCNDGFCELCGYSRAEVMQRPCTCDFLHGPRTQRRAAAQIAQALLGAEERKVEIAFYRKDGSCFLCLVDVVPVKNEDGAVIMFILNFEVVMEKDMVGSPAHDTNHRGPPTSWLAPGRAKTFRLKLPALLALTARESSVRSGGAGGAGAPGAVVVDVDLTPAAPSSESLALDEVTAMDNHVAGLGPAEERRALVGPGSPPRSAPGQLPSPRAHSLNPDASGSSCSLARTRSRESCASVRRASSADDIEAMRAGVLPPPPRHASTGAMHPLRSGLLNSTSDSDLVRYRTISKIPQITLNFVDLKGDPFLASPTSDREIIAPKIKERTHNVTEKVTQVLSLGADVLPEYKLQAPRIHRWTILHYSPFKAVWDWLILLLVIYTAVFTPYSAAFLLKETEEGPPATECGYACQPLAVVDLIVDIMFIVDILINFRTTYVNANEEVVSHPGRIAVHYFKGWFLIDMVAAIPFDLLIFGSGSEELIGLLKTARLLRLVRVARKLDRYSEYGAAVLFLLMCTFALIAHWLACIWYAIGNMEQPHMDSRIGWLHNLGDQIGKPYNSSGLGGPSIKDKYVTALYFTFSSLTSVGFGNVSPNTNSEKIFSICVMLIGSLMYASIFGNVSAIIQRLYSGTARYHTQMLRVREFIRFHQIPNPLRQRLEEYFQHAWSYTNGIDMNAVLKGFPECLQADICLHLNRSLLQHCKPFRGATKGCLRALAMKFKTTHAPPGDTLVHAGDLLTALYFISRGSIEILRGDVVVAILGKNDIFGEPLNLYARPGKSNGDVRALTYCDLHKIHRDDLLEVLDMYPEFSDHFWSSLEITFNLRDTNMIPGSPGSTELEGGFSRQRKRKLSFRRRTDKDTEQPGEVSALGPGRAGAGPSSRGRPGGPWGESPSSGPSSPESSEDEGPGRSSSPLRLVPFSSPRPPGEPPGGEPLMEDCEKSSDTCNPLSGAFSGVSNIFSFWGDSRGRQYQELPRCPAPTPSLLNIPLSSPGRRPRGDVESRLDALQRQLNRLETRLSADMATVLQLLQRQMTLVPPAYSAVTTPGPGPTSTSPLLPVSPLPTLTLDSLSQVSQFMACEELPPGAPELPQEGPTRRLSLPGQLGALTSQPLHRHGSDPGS
Assay: hERG current, PatchXpress 7000A automatic parallel patch clamp in hERG-transfected HEK 293 cells (Example 6)
Conditions: human, HEK 293 cells stably transfected with hERG cDNA, Individual Data (% Inhibition), 0.01 μM, single cell
measured.attribute: inhibition at 5 min, 0.01 µM (%)
Express it in %; write the number only.

Problem: Entry "CCN(CC)C(=O)N1CCSc2ccccc2C1" : reported inhibition at 5 min, 0.01 µM = ?
Result: 1.7

Problem: Now this one: "O=C(N1CCN(Cc2ccc3c(c2)OCO3)CC1)N1CCSc2ccccc2C1"
Result: 4.3

Problem: Also need "COc1ccc2c(c1)CNCCS2" , thanks.
Result: 9.1

* * *

Molecular target: PKA-phosphorylated RyR2 (Homo sapiens)
Test: FKBP12.6 rebinding assay: FKBP12.6 binding to PKA-phosphorylated RyR2 in cardiac SR
Details: compound 0.5-1000 nM; Michaelis-Menten curve fitting
measured.attribute: pEC50
# reply with the number alone; pEC50 is -log10 of concentration in mol/L

Problem: Requested field: pEC50. Item: "COc1ccc2c(c1)CN(C(=O)Nc1ccccc1)CCS2"
Result: 6.74

Problem: What do you have for "COc1ccc2c(c1)CN(C(=O)CC(=O)O)CCS2" ?
Result: 7.36

Problem: And the next one, "COc1ccc2c(c1)CN(S(=O)(=O)Nc1cccnc1)CCS2" ?
Result: 7.11

Problem: Check "COc1ccc2c(c1)CN(C(=O)NCCc1ccc(O)c(O)c1)CCS2" too.
Result: 6.96

Problem: Item: "COc1ccc2c(c1)CN(S(=O)(=O)CCN1CCC(Cc3ccccc3)CC1)CCS2"
Result: 6.82

Problem: Same read-out for "COc1ccc2c(c1)CN(C(=O)c1ccc(N=[N+]=[N-])cc1O)CCS2" ?
Result: 7.00

Problem: Next compound up: "COc1ccc2c(c1)CN(C(N)=O)CCS2"
Result: 6.82

Problem: Please answer likewise for "COc1ccc2c(c1)CN(C(=O)N1CCC(Cc3ccccc3)CC1)CCS2"
Result: 6.60

Problem: Now this one: "COc1ccc2c(c1)CN(C(=O)NCc1ccc3c(c1)CCO3)CCS2"
Result: 6.84

Problem: Now this one: "COc1ccc2c(c1)CN(C(=O)C(=O)O)CCS2(=O)=O"
Result: 6.95

Problem: Similarly, "COc1ccc2c(c1)CN(C(=O)CCN1CCCCC1)CCS2" ?
Result: 7.26

Problem: Now try "COc1ccc2c(c1)CN(C(=O)C(=O)NCCSSCCNC(=O)c1ccc(N=[N+]=[N-])cc1O)CCS2" .
Result: 7.10

Problem: Now give it for "COc1ccc2c(c1)CN(C(=O)CCC(=O)N1CCSc3ccc(OC)cc3C1)CCS2" too.
Result: 6.58

Problem: Another compound to look at: "COc1ccc2c(c1)CN(C(=O)NCCc1cnc[nH]1)CCS2"
Result: 7.05

Problem: Lookup "COC(=O)C(=O)N1CCSc2ccc(OC)cc2C1"
Result: 7.14

Problem: Moving on to the next compound: "COc1ccc2c(c1)CN(C(=S)Nc1ccccc1)CCS2"
Result: 6.71

Problem: Can you check "COc1ccc2c(c1)CN(C(=O)CCN1CCCC[C@H]1c1nnc(Cc3ccccc3)o1)CCS2" next?
Result: 7.02

Problem: Also "CCCCN(CCCC)CCS(=O)(=O)N1CCSc2ccc(OC)cc2C1" ?
Result: 6.68

Problem: One more compound: "COc1ccc2c(c1)CN(C(=O)c1ccccc1)CCS2"
Result: 6.69

Problem: Now give it for "COc1ccc2c(c1)CN(C(=O)C(=O)NCCSSCCNC(=O)c1ccc(N=[N+]=[N-])cc1[N+](=O)[O-])CCS2" too.
Result: 7.10

Problem: Another compound: "COc1ccc2c(c1)C(=O)NCCS2"
Result: 7.40
